// provenance: patent US20230109780A1

Below, each of the binders is paired with its reported pEC50 value.
- tested-target: T1, recombinant human NGF protein (human, UniProt P01138 122-241)
- T1 construct: Bought protein; also called nerve growth factor; biotin-labeled human NGF
- T1 sequence (P01138 122-241 limits assumed): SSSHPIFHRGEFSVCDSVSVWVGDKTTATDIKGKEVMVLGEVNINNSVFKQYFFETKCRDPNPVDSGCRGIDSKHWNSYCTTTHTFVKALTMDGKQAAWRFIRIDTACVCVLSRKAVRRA
- procedure-text: ELISA, human NGF coated
In plain terms, pEC50 is the concentration in mol/L turned into minus its base-10 logarithm.

- binder: "humanized anti-NGF antibody 138E12-02 (antibody, V domains shown, Humanized antibody expressed in CHO cells) VH: QVQLQESGPGLVKPSETLSLTCTVSGFSLTGYGVNWIRQPPGKGLEWLGMIWFDGSTDYNSALKSRLTISKDNSKSQVSLKLSSVTAADTAVYYCAREGYYYGTTYYFDYWGQGTTVTVSS VL: DIQMTQSPSSLSASVGDRVTITCRASQDISNYLNWYQQKPGKAPKLLIYYTSRLHSGVPSRFSGSGSGTDYTLTISSLQPEDFATYFCQQGNTLPRTFGGGTKVEIK"
  pEC50: 10.38
- binder: "humanized anti-NGF antibody 138E12-09 (antibody, V domains shown) VH: QVQLQESGPGLVKPSETLSLTCTVSGFSLTGYGVNWIRQPPGKGLEWIGMIWFDGSTDYQSALKSRVTISKDNSKSQVSLKLSSVTAADTAVYYCAREGYYYGTTYYFDYWGQGTTVTVSS VL: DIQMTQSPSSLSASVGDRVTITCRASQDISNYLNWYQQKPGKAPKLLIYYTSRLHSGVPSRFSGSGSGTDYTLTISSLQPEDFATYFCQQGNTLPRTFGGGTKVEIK"
  pEC50: 10.57

Next up:
Challenge: Dear colleague, I am looking for the recorded pEC50 of the following binder: humanized anti-NGF antibody 138E12-07 (antibody, V domains shown) VH: QVQLQESGPGLVKPSETLSLTCTVSGFSLTGYGVNWIRQPPGKGLEWIGMIWFEGSTDYQSALKSRVTISVDTSKNQFSLKLSSVTAADTAVYYCAREGYYYGTTYYFDYWGQGTTVTVSS VL: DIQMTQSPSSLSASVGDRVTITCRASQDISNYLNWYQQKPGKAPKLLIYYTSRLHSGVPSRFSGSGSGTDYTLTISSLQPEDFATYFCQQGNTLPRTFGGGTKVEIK
Response given: 10.47
